Assay: logP by HPLC (EEC Directive 79/831 Annex V.A8, reversed-phase C 18)
Assay type: physicochemical
Details: reversed-phase HPLC column (C 18), pH 2.3, 0.1% aqueous phosphoric acid / acetonitrile, 43° C., read-out: logP (pH 2.3)
Method: The stated logP values were determined in accordance with EEC Directive 79/831 Annex V.A8 by HPLC (High Performance Liquid Chromatography) using a reversed-phase column (C 18). Temperature: 43° C. In the acidic range, the determination was carried out at pH 2.3 using the mobile phases 0.1% aqueous phosphoric acid and acetonitrile; linear gradient from 10% acetonitrile to 90% acetonitrile. […]
Parameter threshold = 2. Response is Yes when chromatographic logP meets or exceeds it, else No.

Example entries begin here.
| compound | qualitative.label |
| --- | --- |
| CC(C)(C)n1nnc(-c2ccc(Br)cc2)n1 [VII-1] | Yes |
| CC(C)(C)OC(=O)N1C(=O)CCC1c1ccc(-c2ccc(C#N)cc2)cc1 (stereo not shown) [XI-2] | Yes |
| Fc1cccc(F)c1C1=NC(c2ccc(-c3nn[nH]n3)cc2)CC1 (stereo not shown) [I-a-1] | No |
| CCn1nnc(-c2ccc(Br)cc2)n1 [VII-3] | Yes |
| CC(C)(C)n1nnc(-c2ccc(-c3ccc(C4CCC(c5c(F)cccc5F)=N4)cc3)cc2)n1 (stereo not shown) [Example 2] | Yes |
| N#Cc1ccc(-c2ccccc2C2CCC(=O)N2)cc1 (stereo not shown) | No |
| CCOCn1nnc(-c2ccc(Br)cc2)n1 [VII-2] | Yes |
| CCCn1nnc(-c2ccc(C3CCC(c4c(F)cccc4F)=N3)cc2)n1 (stereo not shown) [Example 1] | Yes |
| N#Cc1ccc(C2CCC(c3c(F)cccc3F)=N2)cc1 (stereo not shown) [VIII-1] | Yes |
| CC(C)(C)OC(=O)N1C(=O)CCC1c1ccc(C#N)cc1 (stereo not shown) [XI-1] | Yes |

Q) Could you please find out whether OB(O)c1ccc(-c2nn[nH]n2)cc1 [Example V-2, 4-(2H-tetrazol-5-yl)-phenylboronic acid] has chromatographic logP that meets 2 or exceeds it?
A) No

Q) Check the entry N#Cc1ccc(-c2ccc(C3CCC(=O)N3)cc2)cc1 (stereo not shown) [XIII-b-1] : does chromatographic logP equal or exceed 2?
A) No

Q) # bool: chromatographic logP of CCn1nnc(-c2ccc(-c3ccc(C4CCC(c5c(F)cccc5F)=N4)cc3)cc2)n1 (stereo not shown) [Example 5] >= 2
A) Yes

Q) Could you tell me if the measured chromatographic logP of N#Cc1ccc(C2CCC(=O)N2)cc1 (stereo not shown) [XIII-a-1, 4-(5-oxo-2-pyrrolidinyl)benzonitrile] reaches 2 or more?
A) No

Q) Please indicate if the recorded chromatographic logP for N#Cc1ccc(-c2ccc(C3CCC(c4c(F)cccc4F)=N3)cc2)cc1 (stereo not shown) [VIII-2] meets or exceeds 2.
A) Yes
